biological target: KRAS^G12D/cRAF (Homo sapiens, UniProt P01116, G12D); experiment: KRAS G12D/cRAF binding test (Alphalisa); details: His-tagged KRAS G12D + GMPPNP, GST-tagged cRAF; class symbols
Sequence (P01116 1-188 isoform P01116-2 G12D): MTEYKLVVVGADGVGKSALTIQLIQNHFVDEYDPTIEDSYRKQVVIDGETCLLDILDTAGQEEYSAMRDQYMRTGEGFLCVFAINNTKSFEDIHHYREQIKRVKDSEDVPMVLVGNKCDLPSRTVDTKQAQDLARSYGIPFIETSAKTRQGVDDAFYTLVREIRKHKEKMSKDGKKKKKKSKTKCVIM
pIC50: −log10 of the molar value.
PROPERTY_MEASURED: pIC50

Consider the following illustrative entries.
[
  {
    "COMPOUND": "[2H]C([2H])([2H])OCC12CCC(CN(c3nc(OC[C@@]45CCCN4C[C@H](F)C5)nc4c(F)c(-c5cc(O)cc6ccc(F)c(C#C)c56)nc(OC)c34)C1)N2 (some centres unmarked)",
    "pIC50": "6.30 to 7.30"
  },
  {
    "COMPOUND": "[2H]C([2H])([2H])OC[C@@]12CC[C@@H](CN(c3nc(OC[C@@]45CCCN4C[C@H](F)C5)nc4c(F)c(-c5cc(O)cc6ccc(F)c(C#C)c56)nc(OCC)c34)C1)N2",
    "pIC50": "6.30 to 7.30"
  },
  {
    "COMPOUND": "C#Cc1c(F)ccc2cc(O)cc(-c3ncc4c(N5CC6CCC(CC(=O)OC)(C5)N6)nc(OC[C@@]56CCCN5C[C@H](F)C6)nc4c3F)c12 (some centres unmarked)",
    "pIC50": "> 7.30"
  }
]

Entry [2H]C([2H])([2H])C12CCC(CN(c3nc(OC[C@@]45CCCN4C[C@H](F)C5)nc4c(F)c(-c5cc(O)cc6ccc(F)c(C#C)c56)nc(OC)c34)C1)N2 (some centres unmarked) — recorded pIC50 = > 7.30

Entry C#Cc1c(F)ccc2cc(O)cc(-c3ncc4c(N5C[C@@H]6CC[C@](COC)(C5)N6)nc(OC[C@@]56CCCN5C[C@H](F)C6)nc4c3F)c12 — recorded pIC50 = 6.30 to 7.30

====

Measured IC50 values are reported for all entries that follow.
molecular target: KRAS^G12D/cRAF (Homo sapiens, UniProt P01116, G12D); test: KRAS G12D/cRAF binding test (Alphalisa); conditions: His-tagged KRAS G12D + GMPPNP, GST-tagged cRAF; class symbols

[
  {
    "COMPOUND": "C#Cc1c(F)ccc2cc(O)cc(-c3ncc4c(N5CC6CCC(COCC)(C5)N6)nc(OC[C@@]56CCCN5C[C@H](F)C6)nc4c3F)c12 (some centres unmarked) [Example 32]",
    "MEASURED": "50 to 500 nM"
  }
]

IC50 of C#Cc1c(F)ccc2cc(O)cc(-c3ncc4c(N5CC6CCC(CCF)(C5)N6)nc(OC[C@@]56CCCN5C[C@H](F)C6)nc4c3F)c12 (some centres unmarked) [Example 8] , assay on KRAS^G12D/cRAF (Homo sapiens, UniProt P01116, G12D), is < 50 nM

IC50 of [2H]C([2H])([2H])C12CCC(CN(c3nc(OC[C@@]45CCCN4C[C@H](F)C5)nc4c(F)c(-c5cc(O)cc6ccc(F)c(C#C)c56)nc(C)c34)C1)N2 (some centres unmarked) [Example 40] , assay on KRAS^G12D/cRAF (Homo sapiens, UniProt P01116, G12D), is < 50 nM

IC50 of C#Cc1c(F)ccc2cc(O)cc(-c3ncc4c(N5CC6CCC(C#C)(C5)N6)nc(OC[C@@]56CCCN5C[C@H](F)C6)nc4c3F)c12 (some centres unmarked) [Example 6] , assay on KRAS^G12D/cRAF (Homo sapiens, UniProt P01116, G12D), is 50 to 500 nM

IC50 of C#Cc1c(F)ccc2cc(O)cc(-c3ncc4c(N5CC6CCC(/C=C/F)(C5)N6)nc(OC[C@@]56CCCN5C[C@H](F)C6)nc4c3F)c12 (some centres unmarked) [Example 28] , assay on KRAS^G12D/cRAF (Homo sapiens, UniProt P01116, G12D), is 50 to 500 nM

IC50 of [2H]C([2H])([2H])OCC12CCC(CN(c3nc(OC[C@@]45CCCN4C[C@H](F)C5)nc4c(F)c(-c5cc(O)cc6ccc(F)c(C#C)c56)ncc34)C1)N2 (some centres unmarked) [Example 2] , assay on KRAS^G12D/cRAF (Homo sapiens, UniProt P01116, G12D), is 50 to 500 nM

IC50 of [2H]C([2H])([2H])OC[C@]12CC[C@H](CN(c3nc(OC[C@@]45CCCN4C[C@H](F)C5)nc4c(F)c(-c5cc(O)cc6ccc(F)c(C#C)c56)nc(OCC)c34)C1)N2 [Example 37] , assay on KRAS^G12D/cRAF (Homo sapiens, UniProt P01116, G12D), is 50 to 500 nM

====

Measured bioavailability values are reported for all entries that follow.
experiment: Pharmacokinetic experiment in mice; conditions: male, ICR, mouse, plasma, po, 10 mg/kg
Write the value in % as a bare number.

Consider the following illustrative entries.
[
  {
    "COMPOUND": "[2H]C([2H])([2H])[C@@]12CC[C@@H](CN(c3nc(OC[C@@]45CCCN4C[C@H](F)C5)nc4c(F)c(-c5cc(O)cc6ccc(F)c(C#C)c56)ncc34)C1)N2 [Example 43]",
    "UNIT_TEXT": "%",
    "MEASURED": 5.8
  },
  {
    "COMPOUND": "C#Cc1c(F)ccc2cc(O)cc(-c3ncc4c(N5C[C@H]6CC[C@@](C=C)(C5)N6)nc(OC[C@@]56CCCN5C[C@H](F)C6)nc4c3F)c12 [Example 57]",
    "UNIT_TEXT": "%",
    "MEASURED": 95
  },
  {
    "COMPOUND": "C#Cc1c(F)ccc2cc(O)cc(-c3ncc4c(N5CC6CCC(C5)N6)nc(OC[C@@]56CCCN5C[C@H](F)C6)nc4c3F)c12 [Positive Compounds, reference compound]",
    "UNIT_TEXT": "%",
    "MEASURED": 2.4
  }
]

Entry [2H]C([2H])([2H])OC[C@]12CC[C@H](CN(c3nc(OC[C@@]45CCCN4C[C@H](F)C5)nc4c(F)c(-c5cc(O)cc6ccc(F)c(C#C)c56)nc(OCC)c34)C1)N2 [Example 51] — recorded bioavailability = 28

Entry C#Cc1c(F)ccc2cc(O)cc(-c3ncc4c(N5C[C@@H]6CC[C@](CC)(C5)N6)nc(OC[C@@]56CCCN5C[C@H](F)C6)nc4c3F)c12 [Example 54] — recorded bioavailability = 51

Entry [2H]C([2H])([2H])OC[C@@]12CC[C@@H](CN(c3nc(OC[C@@]45CCCN4C[C@H](F)C5)nc4c(F)c(-c5cc(O)cc6ccc(F)c(C#C)c56)nc(OC)c34)C1)N2 [Example 50] — recorded bioavailability = 48

====

test: Pharmacokinetic experiment in mice; conditions: male, ICR, mouse, plasma, iv, 2 mg/kg
PROPERTY_MEASURED: AUC(0-t) (ng·h/mL)
Write the value in ng·h/mL as a bare number.

Consider the following illustrative entries.
[
  {
    "STRUCTURE": "[2H]C([2H])([2H])OC[C@]12CC[C@H](CN(c3nc(OC[C@@]45CCCN4C[C@H](F)C5)nc4c(F)c(-c5cc(O)cc6ccc(F)c(C#C)c56)nc(OCC)c34)C1)N2",
    "UNIT_TEXT": "ng·h/mL",
    "MEASURED": 1570
  },
  {
    "STRUCTURE": "C#Cc1c(F)ccc2cc(O)cc(-c3ncc4c(N5C[C@@H]6CC[C@](CC)(C5)N6)nc(OC[C@@]56CCCN5C[C@H](F)C6)nc4c3F)c12",
    "UNIT_TEXT": "ng·h/mL",
    "MEASURED": 460
  }
]

Now turn to the next compound.
Entry [2H]C([2H])([2H])[C@@]12CC[C@@H](CN(c3nc(OC[C@@]45CCCN4C[C@H](F)C5)nc4c(F)c(-c5cc(O)cc6ccc(F)c(C#C)c56)ncc34)C1)N2 — recorded AUC(0-t) = 214

====

experiment: Pharmacokinetic experiment in mice; details: male, ICR, mouse, plasma, po, 10 mg/kg
Lab note: anything with half-life below 6 h is marked condition met; values at 6 h or higher are marked condition not met.

[
  {
    "MOLECULE": "C#Cc1c(F)ccc2cc(O)cc(-c3ncc4c(N5CC6CCC(COCC)(C5)N6)nc(OC[C@@]56CCCN5C[C@H](F)C6)nc4c3F)c12 (stereo partly drawn)",
    "ASSIGNED_CATEGORY": "condition met"
  }
]

Problem: For the molecule [2H]C([2H])([2H])OCC12CCC(CN(c3nc(OC[C@@]45CCCN4C[C@H](F)C5)nc4c(F)c(-c5cc(O)cc6ccc(F)c(C#C)c56)ncc34)C1)N2 (stereo partly drawn) , is half-life under 6 h?
condition not met

Problem: For the molecule C#Cc1c(F)ccc2cc(O)cc(-c3ncc4c(N5CC6CCC(C=C)(C5)N6)nc(OC[C@@]56CCCN5C[C@H](F)C6)nc4c3F)c12 (stereo partly drawn) , is half-life under 6 h?
condition not met

Problem: For the molecule C#Cc1c(F)ccc2cc(O)cc(-c3ncc4c(N5CC6CCC(C(C)OC)(C5)N6)nc(OC[C@@]56CCCN5C[C@H](F)C6)nc4c3F)c12 (stereo partly drawn) , is half-life under 6 h?
condition not met

Problem: For the molecule C#Cc1c(F)ccc2cc(O)cc(-c3ncc4c(N5C[C@@H]6CC[C@](CC)(C5)N6)nc(OC[C@@]56CCCN5C[C@H](F)C6)nc4c3F)c12 , is half-life under 6 h?
condition not met

Problem: For the molecule C#Cc1c(F)ccc2cc(O)cc(-c3ncc4c(N5C[C@H]6CC[C@@](C=C)(C5)N6)nc(OC[C@@]56CCCN5C[C@H](F)C6)nc4c3F)c12 , is half-life under 6 h?
condition met

Problem: For the molecule [2H]C([2H])([2H])[C@@]12CC[C@@H](CN(c3nc(OC[C@@]45CCCN4C[C@H](F)C5)nc4c(F)c(-c5cc(O)cc6ccc(F)c(C#C)c56)ncc34)C1)N2 , is half-life under 6 h?
condition not met
